Every entry's value here was drawn from ChEMBL document CHEMBL5537164.

# experiment notes: Clearance in rat liver microsomes
# Format: ADME, Microsome
# condition parameters: read-out: CLH
measure name: microsomal CLint

What the record says about CN1CCC[C@@H](NC(=O)Cn2nc(C(C)(C)O)n3c(cc4sc(Cl)cc43)c2=O)C1 : microsomal CLint is 100 µL/min/mg

---

# experiment notes: Half-life in Sprague-Dawley rat at 10 mg/kg, po or 1 mg/kg, iv measured after 24 hrs by LC-MS/MS analysis
# Format: ADME, organism-based
# condition parameters: in vivo
measure name: half-life (h)
Give bare numbers, in h.

Entry CN1CCC[C@@H](NC(=O)Cn2nc(C(C)(C)O)n3c(cc4sc(Cl)cc43)c2=O)C1 ; half-life = 3.5
